Tested on: CAL-85-1
Assay: normalised response (% of control), CellTiter-Glo; higher = more viable cells (100 = DMSO, 0 = benzethonium chloride kill control)
Details: incubation time: 72 h
property measured: normalised response (%)
Give your result in % as a bare value.

-- ask Fill blank: measured normalised response of the molecule CC(=O)O[C@H]1C(=O)[C@@]2(C)[C@H]([C@H](OC(=O)c3ccccc3)[C@]3(O)C[C@H](OC(=O)[C@H](O)[C@@H](NC(=O)c4ccccc4)c4ccccc4)C(C)=C1C3(C)C)[C@]1(OC(C)=O)CO[C@@H]1C[C@@H]2O [Paclitaxel] (1 nM) is ____.
-- reply 99.5

-- ask What normalised response value was documented for this molecule, COc1c(C)cnc(Cn2cnc3c(Cl)nc(N)nc32)c1C [BIIB021] (1 nM) ?
-- reply 98.1

-- ask // lookup normalised response for COc1c(C)cnc(Cn2cnc3c(Cl)nc(N)nc32)c1C [BIIB021] (10 nM)
-- reply 96.9

---

Test system: DU-4475
Assay: normalised viability (% of control), CellTiter-Blue; higher = more viable cells (about 100 = DMSO control)
Details: incubation time: 72 h
Labelling field: enter met if recorded normalised viability is less than 30%. Enter not met if it equals or exceeds that cut-off.

molecule | experimental system | group label
O=C(c1ccc(OCCN2CCCCC2)cc1)c1c(-c2ccc(O)cc2)sc2cc(O)ccc12 [Raloxifene] (3000 nM) | DU-4475 | not met
CC[C@@]1(O)C(=O)OCc2c1cc1n(c2=O)Cc2cc3ccccc3nc2-1 [Camptothecin] (1500 nM) | DU-4475 | met
COc1c(C)cnc(Cn2cnc3c(Cl)nc(N)nc32)c1C [BIIB021] (3000 nM) | DU-4475 | met
CC(=O)O[C@H]1C(=O)[C@@]2(C)[C@H]([C@H](OC(=O)c3ccccc3)[C@]3(O)C[C@H](OC(=O)[C@H](O)[C@@H](NC(=O)c4ccccc4)c4ccccc4)C(C)=C1C3(C)C)[C@]1(OC(C)=O)CO[C@@H]1C[C@@H]2O [Paclitaxel] (300 nM) | DU-4475 | met
COC(=O)C[C@](O)(CCCC(C)(C)O)C(=O)O[C@@H]1C(OC)=C[C@]23CCCN2CCc2cc4c(cc2[C@H]13)OCO4 [Omacetaxine mepesuccinate] (3000 nM) | DU-4475 | met
C[C@@H]1C=C2C(=O)O[C@@H]3CC[C@H](C1)[C@]23O [Galiellalactone] (15000 nM) | DU-4475 | not met

-- ask Answer whether the molecule c1ccc(C2CN3CCSC3=N2)cc1 (centres undefined) [Tetramisole] (3000 nM) has normalised viability strictly less than 30%
-- reply not met

-- ask Determine if COc1cccc2c1C(=O)c1c(O)c3c(c(O)c1C2=O)C[C@@](O)(C(C)=O)C[C@@H]3O[C@H]1C[C@H](N)[C@H](O)[C@H](C)O1 [Daunorubicin] (300 nM) shows normalised viability strictly lower than 30%.
-- reply not met

-- ask Below 30% on normalised viability? Entry CC(C)C[C@H](NC(=O)[C@H](Cc1ccccc1)NC(=O)c1cnccn1)B(O)O [Bortezomib] (300 nM)
-- reply met

---

Tested on: CAL-51
Assay: normalised viability (% of control), CellTiter-Blue; higher = more viable cells (about 100 = DMSO control)
Conditions: 3 nM; incubation time: 72 h
# key: entry, value: normalised viability
Form entry: value (%) — number only.

compound | measured number
CCS(=O)(=O)c1cccc(-c2cc(C(=O)NC3CCN(C)CC3)c(C)c3[nH]c4ncc(C)cc4c23)c1 [TAK-901] | 92.8

-- ask # get_value(readout='normalised viability', item= COc1cc(Nc2ncc(F)c(Nc3ccc4c(n3)NC(=O)C(C)(C)O4)n2)cc(OC)c1OC [R406] )
-- reply 107

-- ask Quick check: normalised viability of CCOc1cc2ncc(C#N)c(Nc3ccc(OCc4ccccn4)c(Cl)c3)c2cc1NC(=O)/C=C/CN(C)C [Neratinib] ?
-- reply 90.5

-- ask Item under review: Cn1cnc2c(F)c(Nc3ccc(Br)cc3F)c(C(=O)NOCCO)cc21 [MEK-162] . Reported normalised viability?
-- reply 104
